Tested on: LOX IMVI melanoma
ASSAY METHOD TEXT: NCI tumour cell line growth inhibition, 48 h
QUANTITY MEASURED: TGI

Entry CC1(c2cccc(C3CC4(CCC3=O)OCCCCO4)c2)OCCO1 (configuration not stated) — recorded TGI = > 100 µM

TGI reported for this molecule COc1cc(C2c3cc4c(cc3OC(C)(N3CCCC3)C2C)OCO4)cc(OC)c1OC (configuration not stated) : > 31.4 µM

TGI reading for `COC(=O)c1csc([C@@H](OC(=O)[C@H](C)[C@H](CCCC(C)(Cl)Cl)OC(=O)c2csc([C@H](O)CO)n2)C(C)C)n1` : 23.5 µM

Entry `CCCCCCNCCc1cnc[nH]1` ; TGI = > 100 µM

Input COC1OC(CS(=O)(=O)O)C(O)C(O)C1O (configuration not stated) . Output TGI: > 100 µM

For reference, reported TGI for `CNc1ncccc1Nc1cc(=O)n2c3cccnc3n(C)c2c1` stands at > 100 µM

Sure, the documented TGI for `S=C(N/N=C/c1ccccn1)N1CCCCC1` is 20.8 µM
